Where a name gives a salt, the structure may show the parent alone.
Measure Name: melting point (°C)
Just the number please, in °C, no unit attached.

// below: answered compounds
Compound | Measurement Unit | Endpoint Value
CC(c1cc(CO)cc2ncc(N3CCOCC3)nc12)N(C)c1cccc(F)c1 (stereo not shown) | °C | 80
CC(c1cc(C(=O)N(C)C)cc2ncc(N3CCOCC3)nc12)N(C)c1cccc(Cl)c1 (single isomer, unassigned) | °C | 80
CC(Nc1cc(F)c(C(F)(F)F)c(F)c1)c1cc(C(=O)NCCO)cc2ncc(N3CCOCC3)nc12 (stereo not shown) | °C | 200
C[C@@H](Nc1cc(F)cc(F)c1)c1cc(C(=O)NCCN(C)C)cc2ncc(N3CCOCC3)nc12 (as salt: sulfuric acid salt) [Compound 184b] | °C | 270
CC(C)NCCNC(=O)c1cc(C(C)Nc2cc(F)c(F)c(F)c2)c2nc(N3CCOCC3)cnc2c1 (single isomer, unassigned) [Compound 283a] | °C | 173
CC(Nc1cccc(Br)c1)c1cc(C(=O)N2CCOCC2)cc2ncc(N3CCOCC3)nc12 (stereo not shown) | °C | 80

Exercise: # input compound: CC(Nc1ccc(F)c(F)c1)c1cc(C(=O)N2CCC[C@H](O)C2)cc2ncc(N3CCOCC3)nc12 (single isomer, unassigned) [Compound 302a] ; wanted: its melting point
Key: 135

Exercise: # input compound: CC(Nc1cccc(Cl)c1)c1cc(C(=O)N2CCOCC2)cc2ncc(N3CCOCC3)nc12 (stereo not shown) ; wanted: its melting point
Key: 80

Exercise: # input compound: COCCNC(=O)c1cc(C(C)Nc2cc(F)cc(F)c2)c2nc(N3CCOCC3)cnc2c1 (single isomer, unassigned) [Compound 203] ; wanted: its melting point
Key: 118

Exercise: # input compound: CCN1CCN(C(=O)c2cc(C(C)Nc3cccc(F)c3)c3nc(N4CCOCC4)cnc3c2)CC1 (single isomer, unassigned) [Compound 114] ; wanted: its melting point
Key: 303

Exercise: # input compound: CC(Nc1ccc(F)c(F)c1)c1cc(C(=O)NCCO)cc2ncc(N3CCOCC3)nc12 (stereo not shown) [Compound 279] ; wanted: its melting point
Key: 77

Exercise: # input compound: CN[C@H]1CCN(C(=O)c2cc(C(C)Nc3ccc(F)c(F)c3)c3nc(N4CCOCC4)cnc3c2)C1 (mixture of isomers) ; wanted: its melting point
Key: 80

Exercise: # input compound: CC(Nc1cc(F)cc(F)c1)c1cc(C(=O)N2CCN(CC(F)(F)F)CC2)cc2ncc(N3CCOCC3)nc12 (single isomer, unassigned) [Compound 172] ; wanted: its melting point
Key: 130

* * *

- Target System: kinase enzymes (Homo sapiens, UniProt P42345)
pKd: −log10 of the molar value.
The label depends only on pKd: t if it is at least 5, f if it is smaller.

Use the examples below as a reference point.
Compound | Qualitative Label
CN(C)CCNC(=O)c1cc(CNc2cc(F)cc(F)c2)c2nc(N3CCOCC3)cnc2c1 | f
CC(Nc1cc(F)cc(F)c1)c1cc(C(=O)O)cc2ncc(N3CCOCC3)nc12 (stereo not shown) [Compound 83a] | t

Exercise: Check this compound for pKd at or above 5: CNCCNC(=O)c1cc([C@H](C)Oc2cccc(F)c2)c2nc(N3CCOCC3)cnc2c1 [Compound 123a]
Key: f

Exercise: Check this compound for pKd at or above 5: CC(Nc1cc(F)c(F)c(F)c1)c1cc(C(=O)N2CCCN(C(C)C)CC2)cc2ncc(N3CCOCC3)nc12 (single isomer, unassigned) [Compound 388a]
Key: f

Exercise: Check this compound for pKd at or above 5: CC(Nc1cccc(F)c1)c1cc(C(=O)NC[C@@H](C)O)cc2ncc(N3CCOCC3)nc12 (single isomer, unassigned) [Compound 338a]
Key: f

* * *

- Target System: kinase enzymes (Homo sapiens, UniProt P48736)
- Sequence (P48736 whole entry): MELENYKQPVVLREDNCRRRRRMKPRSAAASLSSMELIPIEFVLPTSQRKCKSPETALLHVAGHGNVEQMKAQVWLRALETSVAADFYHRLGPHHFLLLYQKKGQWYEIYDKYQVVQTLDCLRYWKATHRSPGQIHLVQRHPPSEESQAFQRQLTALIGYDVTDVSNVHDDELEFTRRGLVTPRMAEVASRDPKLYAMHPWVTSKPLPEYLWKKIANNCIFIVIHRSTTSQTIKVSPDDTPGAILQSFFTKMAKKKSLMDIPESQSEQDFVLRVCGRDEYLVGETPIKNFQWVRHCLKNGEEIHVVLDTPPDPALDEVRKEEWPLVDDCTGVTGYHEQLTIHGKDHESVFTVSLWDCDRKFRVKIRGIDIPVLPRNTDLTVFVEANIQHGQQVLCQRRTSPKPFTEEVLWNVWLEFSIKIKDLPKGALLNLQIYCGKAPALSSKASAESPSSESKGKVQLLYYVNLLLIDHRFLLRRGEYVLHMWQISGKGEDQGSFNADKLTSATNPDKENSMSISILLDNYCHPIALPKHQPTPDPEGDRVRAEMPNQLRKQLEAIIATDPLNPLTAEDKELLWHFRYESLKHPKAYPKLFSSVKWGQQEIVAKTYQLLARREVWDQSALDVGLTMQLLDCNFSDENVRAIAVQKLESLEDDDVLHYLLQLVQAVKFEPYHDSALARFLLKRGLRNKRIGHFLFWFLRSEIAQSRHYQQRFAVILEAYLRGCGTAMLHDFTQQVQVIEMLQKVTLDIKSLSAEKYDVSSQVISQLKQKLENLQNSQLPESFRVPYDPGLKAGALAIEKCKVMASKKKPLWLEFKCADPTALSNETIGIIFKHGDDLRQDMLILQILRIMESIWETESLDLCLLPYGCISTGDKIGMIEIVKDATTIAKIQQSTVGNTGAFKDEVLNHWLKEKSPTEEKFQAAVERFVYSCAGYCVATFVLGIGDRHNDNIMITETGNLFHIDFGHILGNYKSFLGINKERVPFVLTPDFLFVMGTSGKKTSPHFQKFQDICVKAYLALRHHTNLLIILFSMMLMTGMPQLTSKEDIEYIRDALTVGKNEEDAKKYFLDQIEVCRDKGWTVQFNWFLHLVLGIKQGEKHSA
Measure Name: Kd (µM)
Just the number please, in µM, no unit attached.

// below: answered molecules
Molecule | Kd / µM
CC(Nc1cc(F)cc(F)c1)c1cc(C(=O)NC[C@H](C)O)cc2ncc(N3CCOCC3)nc12 (single isomer, unassigned) [Compound 246b] | 6.17
CC(Nc1ccc(F)c(F)c1)c1cc(C(=O)NCC2CCCN2)cc2ncc(N3CCOCC3)nc12 (single isomer, unassigned) [Compound 329b] | 6.31

Exercise: Give recorded Kd with kinase enzymes (Homo sapiens, UniProt P48736) for the following molecule: CC(Nc1cc(Cl)cc(Cl)c1)c1cc(C(=O)N2CCOCC2)cc2ncc(N3CCOCC3)nc12 (stereo not drawn)
Key: 26.3

* * *

- Target System: kinase enzymes (Homo sapiens)
- Construct: purchased DiscoveRx Corporation, San Diego (contract service, KINOMEscan)
- Assay Remarks: Enzyme binding assay (KINOMEscan, DiscoveRx), further kinases of Table A
- Condition Context: PIK3Cα_h
Measure Name: Kd
Number first, unit second: that is the form wanted.

// below: answered compounds
Compound | Kd
CNCCOCCN(C)C(=O)c1cc(C(C)Nc2ccc(F)c(F)c2)c2nc(N3CCOCC3)cnc2c1 (single isomer, unassigned) [Compound 345a] | 4370 nM
CNCCNC(=O)c1cc(C(C)N(C)c2cccc(F)c2)c2nc(N3CCOCC3)cnc2c1 (stereo not drawn) | 363 nM
CC(Nc1cc(F)c(F)c(F)c1)c1cc(C(=O)NC[C@@H](C)O)cc2ncc(N3CCOCC3)nc12 (single isomer, unassigned) [Compound 284a] | 2080 nM
C[C@H](CO)NC(=O)c1cc(C2CCCN2c2cc(F)cc(F)c2)c2nc(N3CCOCC3)cnc2c1 (single isomer, unassigned) | 339 nM
CC(Nc1cc(F)cc(F)c1)c1cc(C(=O)N2CCNC(C(F)(F)F)C2)cc2ncc(N3CCOCC3)nc12 (single isomer, unassigned) [Compound 237a] | 105 nM

Could you now look at the following compound, please?
Exercise: # input compound: CC(Nc1cc(F)cc(F)c1)c1cc(C(=O)O)cc2ncc(N3CCOCC3)nc12 (stereo not drawn) [Compound 83a] ; wanted: its Kd
Key: 112 nM

* * *

- Target System: kinase enzymes (Homo sapiens, UniProt P42345)
- Construct: purchased DiscoveRx Corporation, San Diego (contract service, KINOMEscan)
- Assay Remarks: Enzyme binding assay (KINOMEscan, DiscoveRx), further kinases of Table A
- Condition Context: MTOR_h
Measure Name: Kd

Compound | Kd
CC(C)NCCNC(=O)c1cc(C(C)Oc2ccc(F)c(F)c2)c2nc(N3CCOCC3)cnc2c1 (single isomer, unassigned) [Compound 286a] | 25.7 µM
CNCCNC(=O)c1cc(C(C)Nc2cc(F)ccc2F)c2nc(N3CCOCC3)cnc2c1 (stereo not shown) [Compound 132] | 11.5 µM
CC(C)NCCNC(=O)c1cc(C(C)Oc2cccc(F)c2)c2nc(N3CCOCC3)cnc2c1 (single isomer, unassigned) [Compound 314b] | > 30.2 µM
CNCCN(C)C(=O)c1cc(C(C)Oc2cc(F)c(F)c(F)c2)c2nc(N3CCOCC3)cnc2c1 (stereo not shown) [Compound 379a] | > 30.2 µM
CC(Oc1cc(F)cc(F)c1)c1cc(C(=O)N(C)C)cc2ncc(C3=CCOCC3)nc12 (single isomer, unassigned) [Compound 403b] | > 30.2 µM
CNCCN(C)C(=O)c1cc(C(C)Nc2cc(F)c(C(F)(F)F)c(F)c2)c2nc(N3CCOCC3)cnc2c1 (stereo not shown) [Compound 224] | > 30.2 µM

Exercise: # input compound: CC(Oc1cccc(F)c1)c1cc(C(=O)N(C)C)cc2ncc(N3CCOCC3)nc12 (single isomer, unassigned) [Compound 339a] ; wanted: its Kd
Key: > 30.2 µM

* * *

- Target System: PI3Kβ (Homo sapiens)
- Construct: purchased DiscoveRx Corporation, San Diego (contract service, KINOMEscan)
- Sequence (P42338 whole entry): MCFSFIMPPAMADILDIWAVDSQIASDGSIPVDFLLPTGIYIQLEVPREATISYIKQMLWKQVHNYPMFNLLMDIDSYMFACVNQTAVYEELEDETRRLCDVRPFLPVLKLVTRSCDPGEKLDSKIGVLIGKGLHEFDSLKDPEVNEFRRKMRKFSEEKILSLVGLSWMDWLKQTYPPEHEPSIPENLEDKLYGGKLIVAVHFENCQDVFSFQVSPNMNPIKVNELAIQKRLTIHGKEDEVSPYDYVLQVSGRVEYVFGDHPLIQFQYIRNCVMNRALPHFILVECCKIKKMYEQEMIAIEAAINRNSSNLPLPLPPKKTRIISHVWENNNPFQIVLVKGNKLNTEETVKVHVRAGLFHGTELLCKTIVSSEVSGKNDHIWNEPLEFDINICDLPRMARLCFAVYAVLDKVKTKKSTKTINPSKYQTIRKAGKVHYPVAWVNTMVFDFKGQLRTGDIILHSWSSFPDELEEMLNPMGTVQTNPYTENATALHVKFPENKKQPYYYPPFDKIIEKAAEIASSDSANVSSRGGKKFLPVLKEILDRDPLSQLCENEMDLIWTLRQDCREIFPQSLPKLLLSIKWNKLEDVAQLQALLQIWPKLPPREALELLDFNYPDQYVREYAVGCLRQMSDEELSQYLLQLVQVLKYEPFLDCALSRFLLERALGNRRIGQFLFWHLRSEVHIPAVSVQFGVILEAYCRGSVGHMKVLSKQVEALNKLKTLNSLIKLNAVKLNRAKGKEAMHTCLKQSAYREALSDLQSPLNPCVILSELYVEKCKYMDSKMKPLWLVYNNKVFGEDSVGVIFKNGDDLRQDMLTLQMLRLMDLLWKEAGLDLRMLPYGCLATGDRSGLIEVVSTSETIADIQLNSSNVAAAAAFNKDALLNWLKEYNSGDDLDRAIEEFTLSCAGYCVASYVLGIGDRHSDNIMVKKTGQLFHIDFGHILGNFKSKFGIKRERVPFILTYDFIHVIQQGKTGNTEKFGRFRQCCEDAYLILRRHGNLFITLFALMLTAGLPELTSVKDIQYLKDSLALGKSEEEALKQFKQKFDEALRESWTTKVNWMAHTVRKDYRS
- Assay Remarks: Enzyme binding assay (KINOMEscan, DiscoveRx)
- Condition Context: PIK3Cβ_h, read-out: Kd PIK3Cβ_h
Measure Name: log10 of Kd (log10 of the value in nM)
Log scale reminder: Kd in nM, then log10 taken.

Compound | Endpoint Value
CN(CCO)C(=O)c1cc(C2CCCN2c2cc(F)cc(F)c2)c2nc(N3CCOCC3)cnc2c1 (stereo not drawn) [Compound 50] | -0.70
CC(Nc1cccc(F)c1)c1cc(C(=O)N2CCC[C@H]2CO)cc2ncc(N3CCOCC3)nc12 (single isomer, unassigned) [Compound 115] | 0.30
CC(Nc1ccc(F)c(F)c1)c1cc(C(=O)NCCN(C)C)cc2ncc(N3CCOCC3)nc12 (single isomer, unassigned) [Compound 281a] | -0.52
CC(Nc1ccc(F)c(F)c1)c1cc(CO)cc2ncc(N3CCOCC3)nc12 (stereo not drawn) [Compound 303] | 0.95
C[C@@H]1CN(c2cnc3cc(C(=O)N(C)C)cc(C4CCCN4c4cccc(F)c4)c3n2)CCO1 (single isomer, unassigned) [Compound 30] | 0.00

Could you now look at the following compound, please?
Exercise: Give recorded log10 of Kd with PI3Kβ (Homo sapiens) for the following compound: CN[C@H]1CCN(C(=O)c2cc(C(C)Oc3ccc(F)c(F)c3)c3nc(N4CCOCC4)cnc3c2)C1 (single isomer, unassigned) [Compound 370a]
Key: -0.52

These measurements were taken from patent US10526316B2.
